# assay_target: T1, LILRB1-ECD-HIS (SinoBiological Cat #: 16014-H02H) (human, UniProt Q8NHL6 24-461)
# T1 construct: Bought protein; also called monomeric antigen LILRB1-ECD-HIS; not shown: His tag
# T1 sequence (Q8NHL6 other isoform, or with tags, fused parts or gaps H02H H02H): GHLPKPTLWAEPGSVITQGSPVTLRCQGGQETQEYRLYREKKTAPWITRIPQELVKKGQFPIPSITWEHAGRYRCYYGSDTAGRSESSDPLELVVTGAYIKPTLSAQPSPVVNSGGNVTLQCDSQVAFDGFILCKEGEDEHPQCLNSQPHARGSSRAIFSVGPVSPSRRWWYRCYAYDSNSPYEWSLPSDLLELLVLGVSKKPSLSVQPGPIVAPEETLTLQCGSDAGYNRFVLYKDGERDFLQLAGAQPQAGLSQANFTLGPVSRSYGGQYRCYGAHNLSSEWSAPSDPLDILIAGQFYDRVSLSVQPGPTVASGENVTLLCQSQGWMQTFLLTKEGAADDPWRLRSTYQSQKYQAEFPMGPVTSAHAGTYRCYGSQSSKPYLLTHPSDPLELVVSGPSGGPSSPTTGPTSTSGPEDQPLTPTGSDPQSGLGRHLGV
# method_summary: SPR (Carterra), LILRB1-ECD-his
Each entry below lists one item and its recorded Kd value.
Unit nM implied. Number only.

Example results:
D2M002-126 (antibody, V domains shown, Humanized and optimized variant of D2M002-026) VH: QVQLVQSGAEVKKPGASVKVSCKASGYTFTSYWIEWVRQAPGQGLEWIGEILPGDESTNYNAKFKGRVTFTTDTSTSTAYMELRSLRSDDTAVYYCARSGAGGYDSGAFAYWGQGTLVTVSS VL: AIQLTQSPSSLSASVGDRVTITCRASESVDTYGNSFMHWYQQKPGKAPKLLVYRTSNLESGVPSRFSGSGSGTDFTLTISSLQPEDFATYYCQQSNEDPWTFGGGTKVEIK ... 0.515
D2M002-002 (antibody, V domains shown, Hit from immunised mice; also called clone #2; anti-LILRB1/2 clone #2) VH: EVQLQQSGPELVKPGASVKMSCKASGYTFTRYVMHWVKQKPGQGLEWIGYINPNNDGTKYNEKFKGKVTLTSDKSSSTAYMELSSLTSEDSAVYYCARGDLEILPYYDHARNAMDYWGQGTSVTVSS VL: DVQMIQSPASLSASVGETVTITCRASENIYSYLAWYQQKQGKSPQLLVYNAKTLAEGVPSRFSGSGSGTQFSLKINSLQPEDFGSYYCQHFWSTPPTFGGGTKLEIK ... 5.67
D2M002-103 (antibody, V domains shown, also called P212_F01) VH: QVQLVQSGAEVKKPGASVKVSCKASGYTFTRYVMHWVRQAPGQRLEWMGWINPNNEETKYSQKFKGRVTLTRDTSASTAYMELSSLRSEDTAVYYCARADLEILPYYDHARYAMDYWGQGTLVTVSS VL: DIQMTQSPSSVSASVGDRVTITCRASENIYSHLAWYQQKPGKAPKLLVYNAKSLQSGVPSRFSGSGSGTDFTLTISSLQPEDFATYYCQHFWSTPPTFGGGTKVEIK ... 4.9

Let's switch to this binder now.
[Q] Give Kd for the following binder: D2M002-026 (antibody, V domains shown, Hit; also called clone #26) VH: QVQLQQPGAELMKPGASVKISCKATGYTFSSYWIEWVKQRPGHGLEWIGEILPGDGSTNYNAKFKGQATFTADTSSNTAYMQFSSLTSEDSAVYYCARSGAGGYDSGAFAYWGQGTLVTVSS VL: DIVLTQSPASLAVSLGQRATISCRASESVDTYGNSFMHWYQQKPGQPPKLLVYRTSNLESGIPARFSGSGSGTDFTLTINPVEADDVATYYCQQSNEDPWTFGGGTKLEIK
[A] 0.382
